# pKd per entry
# SUBJECT OF TEST: T1, IGSF11 (VSIG3), construct used in SPR and BLI not stated (UniProt Q5DX21 23-241, limits assumed)
# T1 sequence (looked up): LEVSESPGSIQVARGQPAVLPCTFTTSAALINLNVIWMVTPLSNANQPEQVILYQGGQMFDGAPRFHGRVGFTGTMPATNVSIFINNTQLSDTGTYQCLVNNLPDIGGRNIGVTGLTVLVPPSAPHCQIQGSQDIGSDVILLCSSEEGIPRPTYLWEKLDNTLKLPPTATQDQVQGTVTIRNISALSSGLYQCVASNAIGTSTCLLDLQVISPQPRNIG
# ASSAY PROTOCOL: SPR (Biacore), IgG1 format; IGSF11 construct not stated
pKd: −log10 of the molar value.

Below are worked cases with known answers.
INSERT INTO measurements (binder, experimental_readout, test_value) VALUES
  ('A-011 (human IgG1 format) (antibody, V domains shown, human IgG1 format) VH: QVQLVESGGGVVQPGRSLRLSCAASGFTFSSYAMHWVRQAPGKGLEWVAVISYDGSNKYYADSVKGRFTISRDNSKNTLYLQMNSLRAEDTAVYYCAEGGALNYYGMDVWGQGTTVTVSS VL: SSELTQDPGVSVALGQTVRITCQGDSLRHFYATWYQQKPGQAPILVIYGKNNRPSGIPDRFSGSSSEDTASLTITGAQAEDEADYYCQSRDPRNNHLIFGGGTKLIVL', 'pKd', '6.30 to 6.60'),
  ('A-012 (human IgG1 format) (antibody, V domains shown, human IgG1 format) VH: EVQLLESGGGLIQPGGSLRLSCAVSGFTVSSNYMSWVRQAPGKGLEWVSVIYSGGSTYYADSVKGRFTISRDNSKNTLYLQMNSLRAEDTAVYYCARGNPYYYGDLQVNFDYWGQGTLVTVSS VL: QAVVTQEPSLTVSPGGTVTLTCASSTGAVTSGYYPNWFQQKPGQAPRALIYSTSNKHSWTPARFSGSLLGGKAALTLSGVQPEDEAEYYCLLYYGGAWVFGGGTKLTVL', 'pKd', '6.30 to 6.60'),
  ('A-006 (human IgG1 format) (antibody, V domains shown, human IgG1 format) VH: EVQLVESGGGLIQPGGSLRLSCAASGFTVSSNYMSWVRQAPGKGLEWVSVIYSGGSTYYADSVKGRFTISRDNSKNTLYLQMNSLRAEDTAVYYCARGNPYYYGDLQVNFDYWGQGTLVTVSS VL: QAVVTQEPSLTVSPGGTVTLTCASSTGAVTSGYYPNWFQQKPGQAPRPLIYSTSNKHSWTPARFSGSLLGGKAALTLSGVQPDDEAEYYCLLYYGGDWVFGGGTKLTVL', 'pKd', '6.30 to 6.60'),
  ('A-034 (human IgG1 format) (antibody, V domains shown, human IgG1 format) VH: QMQLVQSGGGLVKPGGSLRLSCAASGFTFSSYTMNWVRQAPGKGLEWVSSISSIGTYIYYADSVKGRFTISRDNAKNSLYLQMNSLRAEDTAVYYCARVLLSGSYYGYFDSWGQGTLVTVSS VL: QSVLTQPPSVSGAPGQRVTISCTGSSSNIGAGYDVHWYQQLPGTAPKLFIYGNSNRPSGVPDRFSGSKSGTSASLAITGLQAEDEADYYCQSYDSSLSGYVFGTGTKVTVL', 'pKd', '6.30 to 6.60'),
  ('A-013 (human IgG1 format) (antibody, V domains shown, human IgG1 format) VH: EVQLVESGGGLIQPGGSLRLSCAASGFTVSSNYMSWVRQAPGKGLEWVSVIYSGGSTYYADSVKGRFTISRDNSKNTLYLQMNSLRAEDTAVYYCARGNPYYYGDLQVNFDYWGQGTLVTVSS VL: QAVVTQEPSLTVSPGGTVTLTCASSTGAVTSAYYPNWFQQKPGQAPRALIYSTSNKHSWTPARFSGSLLGGKAALTLSGVQPEDEADYYCLLYYGGAWVFGGGTKLTVL', 'pKd', '6.60 to 7.00');

Read off the recorded pKd for A-004 (human IgG1 format) (antibody, V domains shown, human IgG1 format) VH: EVQLVESGGGLVKPGGSLRLSCAASGFTFSSYSMNWVRQAPGKGLEWVSSISSSSSYIYYADSVKGRFTISRDNAKNSLYLQMNSLRAEDTAVYYCARGQLLWFGESALIDAFDIWGQGTMVTVSS VL: EIVLTQSPSSLSASVGDRVTITCRASQSISSYLNWYQLKPGKAPKLLIYAASILQSGVPSRFSGSGSGTDFTLTISSLQPEDFAAYYCQQSYSTPRTFGQGTKLEIK
6.60 to 7.00

Read off the recorded pKd for A-024 (human IgG1 format) (antibody, V domains shown) VH: QMQLVQSGAEVKKPGSSVKVSCKASGGTFSSYAISWVRQAPGQGLEWMGWISAYNGNTNYAQKLQGRVTMTTDTSTSTAYMELRSLRSDDTAVYYCASLGSYGYTGAFDIWGQGTMATVSS VL: QSALTQPASVSGSPGQSITISCTGTSSDVGGYNYVSWYQQHPGKAPKLMIYEVSNRPSGVSNRFSGSKSGNTASLTISGLQAEDEADYYCSSYTSSSTLVVFGGGTKLTVL
< 6.30
